# Test System: GPNMB-V5His (recombinant human GPNMB extracellular domain with C-terminal V5-His tag) (human) (UniProt Q14956)
# Measurement Description: SPR (Biacore), mAb on protein A, GPNMB 880 nM
Value Kind: kon

Query: Supply reported kon belonging to this binder: Mab1.2.2 (antibody, human IgG2, V domains shown) VH: ITLKESGPTLVKPTQTLTLTCTFSGFSLSAGGVGVGWIRQPPGKALEWLALIYWNDDKRYSPSLRSRLTITKDTSKNQVVLTITNMDPVDTATYYCAHSHYDYDWGSYFDYWGQGTLVTVSS VL: DIVMTQTPLSLPVTPGEPASISCRSSQSLLDSDDGNTYLDWYLQKPGQSPQLLIYTLSYRASGVPDRFSGSGSGTDFTLNISRVEAEDVGVYYCMQRIEFPITFGQGTRLEIKR
Result: 9260 M⁻¹ s⁻¹
